The reported numbers originate from patent US12559488B2.

# Assay text: Pharmacokinetic study in rats after intragastric administration
# Format: in vivo
# Condition summary: both sexes, Sprague-Dawley (SD), rat, plasma, po, 2 mg/kg, read-out: Plasma concentration Cmax
Assay endpoint: Cmax (ng/mL)

A: C[C@@H]1COCCN1c1cc(-c2ccnn2C)c2c(n1)c(-c1cc[nH]n1)nn2C [Example 3]
B: C[C@@H]1COCCN1c1cc(C2(C#N)CC2)c2c(n1)c(-c1cc[nH]n1)nn2C [Example 2]
**Q:** Of A and B , which carries the smaller reported Cmax figure? Returns: label corresponding to the selected item.
**A:** B

====

# Study system: ATR enzyme (Homo sapiens)
# Construct: purchased Eurofins Pharma Discovery Services 14-953-M
# Sequence (Q13535 whole entry): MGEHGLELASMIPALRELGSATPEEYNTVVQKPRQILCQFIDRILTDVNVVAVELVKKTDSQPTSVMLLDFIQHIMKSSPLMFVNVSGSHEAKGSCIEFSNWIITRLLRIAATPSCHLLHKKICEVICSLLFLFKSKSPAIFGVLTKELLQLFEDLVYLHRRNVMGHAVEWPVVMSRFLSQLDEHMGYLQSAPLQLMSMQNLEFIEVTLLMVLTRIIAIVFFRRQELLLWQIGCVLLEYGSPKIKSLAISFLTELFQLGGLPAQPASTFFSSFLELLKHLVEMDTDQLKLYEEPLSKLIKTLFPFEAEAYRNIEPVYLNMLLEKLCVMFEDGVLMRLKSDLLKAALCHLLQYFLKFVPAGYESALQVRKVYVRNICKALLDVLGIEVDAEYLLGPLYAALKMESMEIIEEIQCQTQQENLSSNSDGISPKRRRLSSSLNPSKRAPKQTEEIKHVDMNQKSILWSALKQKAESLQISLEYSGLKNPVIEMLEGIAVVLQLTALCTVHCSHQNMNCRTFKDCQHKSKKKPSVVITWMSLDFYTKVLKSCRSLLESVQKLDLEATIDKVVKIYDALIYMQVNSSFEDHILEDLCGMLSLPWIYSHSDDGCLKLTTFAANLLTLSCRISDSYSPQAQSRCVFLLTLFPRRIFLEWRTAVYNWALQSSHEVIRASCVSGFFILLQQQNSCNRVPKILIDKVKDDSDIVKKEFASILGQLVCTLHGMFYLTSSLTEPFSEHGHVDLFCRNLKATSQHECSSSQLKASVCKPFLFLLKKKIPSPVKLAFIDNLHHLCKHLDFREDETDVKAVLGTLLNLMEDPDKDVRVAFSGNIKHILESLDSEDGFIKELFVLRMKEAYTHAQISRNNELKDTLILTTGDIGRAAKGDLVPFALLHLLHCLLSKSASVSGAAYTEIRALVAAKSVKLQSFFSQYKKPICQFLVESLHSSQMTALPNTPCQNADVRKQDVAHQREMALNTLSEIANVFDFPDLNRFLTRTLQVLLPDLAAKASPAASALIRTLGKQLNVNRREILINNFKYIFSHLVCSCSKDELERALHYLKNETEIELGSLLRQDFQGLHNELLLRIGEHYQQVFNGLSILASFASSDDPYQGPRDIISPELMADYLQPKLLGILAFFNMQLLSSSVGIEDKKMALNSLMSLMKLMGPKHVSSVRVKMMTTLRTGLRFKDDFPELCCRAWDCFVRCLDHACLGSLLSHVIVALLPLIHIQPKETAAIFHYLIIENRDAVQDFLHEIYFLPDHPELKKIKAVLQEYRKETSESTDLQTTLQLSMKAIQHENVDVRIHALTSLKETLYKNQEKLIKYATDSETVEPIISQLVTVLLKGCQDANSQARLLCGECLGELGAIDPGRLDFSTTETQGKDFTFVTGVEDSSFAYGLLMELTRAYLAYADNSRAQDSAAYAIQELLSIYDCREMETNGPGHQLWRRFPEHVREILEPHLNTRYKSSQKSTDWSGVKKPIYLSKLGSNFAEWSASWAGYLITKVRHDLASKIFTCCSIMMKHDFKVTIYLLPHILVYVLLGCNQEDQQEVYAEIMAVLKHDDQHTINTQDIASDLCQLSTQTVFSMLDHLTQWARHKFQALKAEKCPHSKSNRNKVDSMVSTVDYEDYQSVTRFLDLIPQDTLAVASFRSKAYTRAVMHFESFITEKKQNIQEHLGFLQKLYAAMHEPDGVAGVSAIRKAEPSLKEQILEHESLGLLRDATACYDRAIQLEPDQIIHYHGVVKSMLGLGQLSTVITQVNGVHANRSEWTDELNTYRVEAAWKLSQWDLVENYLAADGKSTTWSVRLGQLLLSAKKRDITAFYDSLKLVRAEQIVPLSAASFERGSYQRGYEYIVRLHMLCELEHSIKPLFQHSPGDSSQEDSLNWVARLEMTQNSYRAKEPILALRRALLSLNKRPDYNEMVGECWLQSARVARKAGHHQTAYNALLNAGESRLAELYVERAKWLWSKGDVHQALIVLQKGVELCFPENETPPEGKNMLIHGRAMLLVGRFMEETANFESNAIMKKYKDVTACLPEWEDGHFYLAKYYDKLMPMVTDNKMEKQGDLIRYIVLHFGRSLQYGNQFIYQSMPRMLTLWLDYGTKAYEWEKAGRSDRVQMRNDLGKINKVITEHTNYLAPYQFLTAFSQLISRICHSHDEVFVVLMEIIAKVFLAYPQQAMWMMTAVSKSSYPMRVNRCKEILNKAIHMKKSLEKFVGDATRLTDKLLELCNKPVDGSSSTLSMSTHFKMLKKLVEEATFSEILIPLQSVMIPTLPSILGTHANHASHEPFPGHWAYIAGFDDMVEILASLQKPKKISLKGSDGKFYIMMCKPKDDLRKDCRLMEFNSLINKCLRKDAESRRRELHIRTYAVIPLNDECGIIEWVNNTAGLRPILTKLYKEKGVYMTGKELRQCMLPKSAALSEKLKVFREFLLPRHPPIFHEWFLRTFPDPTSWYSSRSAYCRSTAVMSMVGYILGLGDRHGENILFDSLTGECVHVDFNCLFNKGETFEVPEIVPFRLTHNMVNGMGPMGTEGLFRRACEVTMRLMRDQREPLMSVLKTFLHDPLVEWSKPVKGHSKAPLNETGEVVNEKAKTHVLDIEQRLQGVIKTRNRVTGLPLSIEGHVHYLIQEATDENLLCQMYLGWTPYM
# Sequence (Q8WXE1 whole entry partner): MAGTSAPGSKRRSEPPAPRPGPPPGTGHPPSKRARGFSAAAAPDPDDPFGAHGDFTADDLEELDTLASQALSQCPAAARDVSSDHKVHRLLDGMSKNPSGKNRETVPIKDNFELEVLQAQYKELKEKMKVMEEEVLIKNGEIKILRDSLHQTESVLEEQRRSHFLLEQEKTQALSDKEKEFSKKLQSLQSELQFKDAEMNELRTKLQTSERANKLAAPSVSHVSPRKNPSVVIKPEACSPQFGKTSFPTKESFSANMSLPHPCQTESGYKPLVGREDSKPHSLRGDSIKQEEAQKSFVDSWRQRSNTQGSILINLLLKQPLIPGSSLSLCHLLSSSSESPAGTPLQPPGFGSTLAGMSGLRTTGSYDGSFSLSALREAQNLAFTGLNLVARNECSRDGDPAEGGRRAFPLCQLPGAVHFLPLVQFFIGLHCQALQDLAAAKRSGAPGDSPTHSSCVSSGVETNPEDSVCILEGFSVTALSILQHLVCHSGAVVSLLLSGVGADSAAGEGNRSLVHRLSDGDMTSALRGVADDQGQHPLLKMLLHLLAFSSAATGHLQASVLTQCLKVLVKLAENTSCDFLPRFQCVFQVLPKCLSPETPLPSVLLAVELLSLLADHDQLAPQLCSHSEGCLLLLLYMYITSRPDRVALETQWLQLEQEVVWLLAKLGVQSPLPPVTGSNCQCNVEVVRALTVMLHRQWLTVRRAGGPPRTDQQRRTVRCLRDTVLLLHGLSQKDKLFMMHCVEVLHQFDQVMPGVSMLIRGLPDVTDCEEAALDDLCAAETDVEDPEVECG
# Assay text: Inhibitory effect on ATR enzyme (phospho-p53 HTRF)
# Assay type: biochemical
# Condition summary: compound serially 3-fold diluted from 1 μM
Assay endpoint: Maximum inhibition (%) of ATR enzyme

Molecule: C[C@@H]1COCCN1c1cc(-c2ccnn2C)c2c(n1)c(-c1cc[nH]n1)nn2C
Recorded measurement: 100

Molecule: C[C@@H]1COCCN1c1cc(C(C)(C)O)c2c(n1)c(-c1cc[nH]n1)nn2C [Comparative Example 1, reference compound]
Recorded measurement: 97

Molecule: CCn1nc(-c2cc[nH]n2)c2nc(N3CCOC[C@H]3C)cc(C3(C#N)CC3)c21
Recorded measurement: 100

Molecule: C[C@@H]1COCCN1c1cc(C(C)(C)C#N)c2[nH]nc(-c3cc[nH]n3)c2n1
Recorded measurement: 100

Molecule: CCn1nc(-c2cc[nH]n2)c2nc(N3CCOC[C@H]3C)cc(C(C)(C)C#N)c21
Recorded measurement: 100

Molecule: C[C@@H]1COCCN1c1cc(C2(C#N)CC2)c2c(n1)c(-c1cc[nH]n1)nn2C
Recorded measurement: 100
